These data points were gathered from paper PMC9732439.

- target.of.assay: hCA-II (Homo sapiens)
- procedure.text: In vitro carbonic anhydrase inhibition assay (p-NPA, spectrophotometric), hCA-II
- Format: biochemical
- conditions: human CA-II, substrate p-NPA, triplicate
readout.kind: hCA-II IC50 ± S.E.M.

In: Give hCA-II IC50 ± S.E.M. for this entry on hCA-II (Homo sapiens): COc1cc(-c2ccc(C(C)=O)cc2)ccc1O[C@H](C)Cn1cc(-c2ccc(F)cc2)nn1 [Compound 9r]
Out: Inactive

In: Give hCA-II IC50 ± S.E.M. for COc1cc(-c2ccc3ccccc3c2)ccc1O[C@H](C)Cn1cc(-c2ccc(F)cc2)nn1 [Compound 9q] tested on hCA-II (Homo sapiens).
Out: Inactive

In: Report the value of hCA-II IC50 ± S.E.M. obtained on hCA-II (Homo sapiens) for COc1ccc(-c2ccc(O[C@H](C)Cn3cc(-c4ccc(F)cc4)nn3)c(OC)c2)cc1 [Compound 9h] .
Out: Inactive

In: Enter hCA-II IC50 ± S.E.M. (test system hCA-II (Homo sapiens)) for COc1cc(-c2ccc(F)cc2)ccc1O[C@H](C)Cn1cc(-c2ccc(C(F)(F)F)cc2)nn1 [Compound 9d]
Out: Inactive

---

- target.of.assay: UniProtKB P00921
- Sequence (P00921 whole entry): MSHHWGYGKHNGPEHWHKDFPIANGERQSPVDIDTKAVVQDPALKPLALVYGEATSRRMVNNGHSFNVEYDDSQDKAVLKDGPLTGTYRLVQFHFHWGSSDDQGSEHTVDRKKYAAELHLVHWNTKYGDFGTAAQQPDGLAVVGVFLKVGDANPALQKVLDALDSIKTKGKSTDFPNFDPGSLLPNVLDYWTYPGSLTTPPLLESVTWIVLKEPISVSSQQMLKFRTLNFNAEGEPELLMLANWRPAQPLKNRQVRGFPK
- procedure.text: In vitro carbonic anhydrase inhibition assay (p-NPA, spectrophotometric), bCA-II
- Assay type: biochemical, bovine
- conditions: bovine CA-II, substrate p-NPA, 15 min at 25°C, triplicate
readout.kind: bCA-II IC50 ± S.E.M.

Consider the reported bCA-II IC50 ± S.E.M. for these molecules:
In: Tell me its bCA-II IC50 ± S.E.M. on UniProtKB P00921: COc1cc(-c2ccc3ccccc3c2)ccc1O[C@H](C)Cn1cc(-c2ccc(F)cc2)nn1 [Compound 9q]
Out: Inactive

In: Supply bCA-II IC50 ± S.E.M. measured with UniProtKB P00921 for COc1cc(-c2ccc(F)c(F)c2F)ccc1O[C@H](C)Cn1cc(-c2ccc(F)cc2)nn1 [Compound 9p] .
Out: Inactive

In: State recorded bCA-II IC50 ± S.E.M. with UniProtKB P00921, entry COc1cc(-c2ccccc2C(F)(F)F)ccc1O[C@H](C)Cn1cc(-c2ccc(C(F)(F)F)cc2)nn1 [Compound 9c] , no comment.
Out: Inactive

In: Under UniProtKB P00921: report bCA-II IC50 ± S.E.M. of COc1cc(-c2ccc(C#N)cc2)ccc1O[C@H](C)Cn1cc(-c2ccc(F)cc2)nn1 [Compound 9k] .
Out: Inactive

In: State bCA-II IC50 ± S.E.M. (UniProtKB P00921) of COc1cc(-c2cc3ccccc3s2)ccc1O[C@H](C)Cn1cc(-c2ccc(F)cc2)nn1 [Compound 9s] .
Out: Inactive

In: Provide bCA-II IC50 ± S.E.M., tested on UniProtKB P00921, for COc1cc(-c2ccc(F)cc2)ccc1O[C@H](C)Cn1cc(-c2ccc(F)cc2)nn1 [Compound 9l] .
Out: Inactive

// switching to the query molecule
In: Enter measured bCA-II IC50 ± S.E.M., system UniProtKB P00921, for the molecule shown: COc1cc(-c2ccc(Cl)cc2)ccc1O[C@H](C)Cn1cc(-c2ccc(F)cc2)nn1 [Compound 9j]
Out: Inactive
